test system: kochia; test: Test C preemergence; type: in vivo, Bassia scoparia; details: 500 g ai/ha, preemergence; 0 to 100 scale (0 no effect, 100 complete control)
quantityName: Kochia plant response rating
// no unit, no text: just the number

Recorded Kochia plant response rating, per entry:
>  <structure>
Cc1cccc2c1O[C@@H](C)CN2C(=O)c1cc(-n2cnc(C(C)C)n2)cc2c1CCO2

>  <Kochia plant response rating>
90

$$$$
>  <structure>
COC[C@H]1CN(C(=O)c2cc(-n3cnc(C4CCC4)n3)cc3c2OCCO3)c2cccc(Cl)c2O1

>  <Kochia plant response rating>
90

$$$$

Query molecule follows.
(Q) What value of measured Kochia plant response rating is listed for CCOC[C@H]1CN(C(=O)c2cc(-n3cnc(C(C)C)n3)cc3c2OCO3)c2cccc(Cl)c2O1 ?
(A) 90

---

test system: sedge, umbrella; test: Test B flooded paddy test; format: in vivo, Cyperus difformis; details: 250 g ai/ha, Flood, 13 days, 0 to 100 scale (0 no effect, 100 complete control)
quantityName: Plant response rating, Sedge, Umbrella
// no unit, no text: just the number

Recorded Plant response rating, Sedge, Umbrella, per entry:
>  <compound>
CCC1CN(C(=O)c2cncc(-n3cncn3)c2)c2cccc(Cl)c2O1 (racemic)

>  <quantityName>
Plant response rating, Sedge, Umbrella

>  <readoutNumber>
0

$$$$
>  <compound>
C#Cc1cccc2c1OC(C)CN2C(=O)c1cccc(-n2cncn2)c1 (centres unmarked)

>  <quantityName>
Plant response rating, Sedge, Umbrella

>  <readoutNumber>
0

$$$$
>  <compound>
CC(C)c1ncn(-c2cc(C(=O)N3C[C@H](C)Oc4c(Cl)cccc43)c3ccccc3c2)n1

>  <quantityName>
Plant response rating, Sedge, Umbrella

>  <readoutNumber>
0

$$$$
>  <compound>
Cc1ccc(-n2cnc(Br)n2)cc1C(=O)N1C[C@H](C)Oc2c(Cl)cccc21

>  <quantityName>
Plant response rating, Sedge, Umbrella

>  <readoutNumber>
0

$$$$
>  <compound>
Cc1c(C(=O)N2CC(C)Oc3c(Cl)cccc32)cccc1-n1cncn1 (centres unmarked)

>  <quantityName>
Plant response rating, Sedge, Umbrella

>  <readoutNumber>
0

$$$$
>  <compound>
CC1CN(C(=O)c2cccc(-n3cncn3)c2)c2cccc(F)c2O1 (centres unmarked)

>  <quantityName>
Plant response rating, Sedge, Umbrella

>  <readoutNumber>
35

$$$$
>  <compound>
C[C@H]1CN(C(=O)c2cccc(-n3cnc(CC4CCCCC4)n3)c2)c2cccc(Cl)c2O1

>  <quantityName>
Plant response rating, Sedge, Umbrella

>  <readoutNumber>
0

$$$$
>  <compound>
Cc1ccc(C(=O)N2CC(C)Oc3c(Cl)cccc32)cc1-n1cncn1 (centres unmarked)

>  <quantityName>
Plant response rating, Sedge, Umbrella

>  <readoutNumber>
0

$$$$
>  <compound>
CC(C)c1ncn(-c2ccc(O)c(C(=O)N3C[C@H](C)Oc4c(Cl)cccc43)c2)n1

>  <quantityName>
Plant response rating, Sedge, Umbrella

>  <readoutNumber>
0

$$$$
>  <compound>
CC1CN(C(=O)c2cccc(-n3cncn3)c2)c2c(F)cccc2O1 (centres unmarked)

>  <quantityName>
Plant response rating, Sedge, Umbrella

>  <readoutNumber>
0

$$$$

Query compound follows.
(Q) What value of measured Plant response rating, Sedge, Umbrella is listed for CC(C)c1ncn(-c2ccc(OC(F)F)c(C(=O)N3C[C@H](C)Oc4c(Cl)cccc43)c2)n1 ?
(A) 98

---

system: ragweed; assay: Test A preemergence; type: in vivo, Ambrosia artemisiifolia; settings: 500 g ai/ha, visual injury after 10 days, 0 to 100 scale, 0 is no effect, 100 is complete control
This listing pairs compounds with measured Plant response rating, Ragweed.

>  <compound>
Cc1nc(C)n(-c2cccc(C(=O)N3C[C@H](C)Oc4c(Cl)cccc43)c2)n1 [Compound 142]

>  <Plant response rating, Ragweed>
0

$$$$
>  <compound>
Cc1ccc(-n2cnc(CO)n2)cc1C(=O)N1C[C@H](C)Oc2c(Cl)cccc21 [Compound 148]

>  <Plant response rating, Ragweed>
90

$$$$
>  <compound>
CC(C)Cc1ncn(-c2cccc(C(=O)N3C[C@H](C)Oc4c(Cl)cccc43)c2)n1 [Compound 112]

>  <Plant response rating, Ragweed>
40

$$$$
>  <compound>
Cc1cccc2c1O[C@@H](C)CN2C(=O)c1cccc(-n2cnc(COC(C)C)n2)c1 [Compound 135]

>  <Plant response rating, Ragweed>
0

$$$$

(Q) What value of measured Plant response rating, Ragweed is listed for C[C@H]1CN(C(=O)c2cc(Br)cc(-n3cncn3)c2)c2cccc(Cl)c2O1 [Compound 114] ?
(A) 0

(Q) What value of measured Plant response rating, Ragweed is listed for COc1cc(C(=O)N2C[C@H](C)Oc3c(Cl)cccc32)cc(-n2cncn2)c1 [Compound 138] ?
(A) 0

---

tested on: foxtail, giant; assay: Test A postemergence; format: in vivo, Setaria faberi; details: 500 g ai/ha, postemergence, 10 days, visual injury, 0 to 100 scale (0 no effect, 100 complete control)
quantityName: Plant response rating, Foxtail, Giant
// no unit, no text: just the number

>  <molecule>
C[C@H]1CN(C(=O)c2cccc(-n3cnc(C(C)(C)C)n3)c2)c2cccc(Cl)c2O1 [Compound 92]

>  <system>
foxtail, giant

>  <Plant response rating, Foxtail, Giant>
80

$$$$
>  <molecule>
COc1cc(C(=O)N2C[C@H](C)Oc3c(Cl)cccc32)cc(-n2cncn2)c1 [Compound 138]

>  <system>
foxtail, giant

>  <Plant response rating, Foxtail, Giant>
90

$$$$
>  <molecule>
Cc1ccc(-n2cnc(C3CC3)n2)cc1C(=O)N1C[C@H](C)Oc2c(Cl)cccc21 [Compound 67]

>  <system>
foxtail, giant

>  <Plant response rating, Foxtail, Giant>
90

$$$$
>  <molecule>
Cc1cccc2c1O[C@@H](C)CN2C(=O)c1cccc(-n2cnc(C3CCCCC3)n2)c1 [Compound 82]

>  <system>
foxtail, giant

>  <Plant response rating, Foxtail, Giant>
10

$$$$

Query molecule follows.
(Q) What value of measured Plant response rating, Foxtail, Giant is listed for CCc1ccc(-n2cnc(C3CC3)n2)cc1C(=O)N1C[C@H](C)Oc2c(Cl)cccc21 [Compound 103] ?
(A) 90

---

test system: ragweed; test: Test C preemergence; format: in vivo, Ambrosia artemisiifolia; conditions: Test C, preemergence, 125 g ai/ha; 0 to 100 scale (0 no effect, 100 complete control)
quantityName: Ragweed plant response rating
// no unit, no text: just the number

Recorded Ragweed plant response rating, per entry:
>  <structure>
CC(C)c1ncn(-c2cc3c(c(C(=O)N4C[C@H](C)Oc5c(Cl)cccc54)c2)OCCCO3)n1

>  <Ragweed plant response rating>
80

$$$$
>  <structure>
COC[C@H]1CN(C(=O)c2cc(-n3cnc(C(C)(C)C)n3)ccc2C)c2cccc(Cl)c2O1

>  <Ragweed plant response rating>
60

$$$$
>  <structure>
CC(C)c1cc(C(=O)N2C[C@H](C)Oc3c(Cl)cccc32)cc(-n2cncn2)c1

>  <Ragweed plant response rating>
0

$$$$

(Q) What value of measured Ragweed plant response rating is listed for C[C@H]1CN(C(=O)c2cccc(-n3cnc(C(C)(C)O)n3)c2)c2cccc(Cl)c2O1 ?
(A) 50

---

tested on: pigweed, palmer; test: Test C postemergence; assay type: in vivo, Amaranthus palmeri; conditions: 125 g ai/ha, postemergence, 10 days; 0 to 100 scale, 0 no effect, 100 complete control
quantityName: Plant response rating, Pigweed, Palmer
// no unit, no text: just the number

Recorded Plant response rating, Pigweed, Palmer, per entry:
>  <compound>
CCc1ncn(-c2ccc(OC)c(C(=O)N3C[C@H](C)Oc4c(C)cccc43)c2)n1

>  <Plant response rating, Pigweed, Palmer>
90

$$$$
>  <compound>
Cc1cccc2c1O[C@@H](C)CN2C(=O)c1cccc(-n2cnc(C#C[Si](C)(C)C)n2)c1

>  <Plant response rating, Pigweed, Palmer>
40

$$$$
>  <compound>
Cc1ccc(-n2cnc(C3(C)CC3)n2)cc1C(=O)N1C[C@H](C)Oc2c(Cl)cccc21

>  <Plant response rating, Pigweed, Palmer>
90

$$$$
>  <compound>
Cc1ccc(-n2cnc(C[S+](C)[O-])n2)cc1C(=O)N1C[C@H](C)Oc2c(Cl)cccc21 (some centres unmarked)

>  <Plant response rating, Pigweed, Palmer>
90

$$$$

(Q) What value of measured Plant response rating, Pigweed, Palmer is listed for Cc1ccc(-n2cnc(CC3CC3)n2)cc1C(=O)N1C[C@H](C)Oc2c(Cl)cccc21 ?
(A) 90

---

tested on: corn; assay: Test C preemergence; format: in vivo, Zea mays; conditions: Preemergence, 125 g ai/ha; 0 to 100 scale, 0 no effect, 100 complete control
quantityName: Plant response rating, Corn
// no unit, no text: just the number

Recorded Plant response rating, Corn, per entry:
>  <compound>
Cc1cccc2c1OC(C(F)(F)F)CN2C(=O)c1ccnc(-n2cnc(C(C)C)n2)c1 (single isomer, unassigned)

>  <system>
corn

>  <Plant response rating, Corn>
30

$$$$
>  <compound>
CCOCC1CN(C(=O)c2cc(-n3cnc(C(C)(C)C)n3)ccc2OC)c2cccc(Cl)c2O1 (stereo not drawn)

>  <system>
corn

>  <Plant response rating, Corn>
30

$$$$

Query compound follows.
(Q) What value of measured Plant response rating, Corn is listed for Cc1ccc(-n2cnc(CC#N)n2)cc1C(=O)N1C[C@H](C)Oc2c(Cl)cccc21 ?
(A) 10

Attribution: patent US20260262643A1
